Hey, just so you know, these numbers are from the supplement of paper PMC11865577.

- Tested on: TO-N3 (biotin conjugate)
- protocol.notes: pull-down binding Z-score (relative to library population); higher = stronger binding
- experimental.parameters: RNA library: Library-2
Everything with pull-down binding Z-score lower than -0.4 is Not satisfied; everything else, including exactly -0.4, is Satisfied.

sequence.data: GUGAGUGUCUCUUGUCGC [hsa-mir-1281]
system.name: TO-N3 (biotin conjugate)
label.class: Satisfied
//
sequence.data: GUUUGGGUGCGGUUGGGAGUCUCUAAU [hsa-mir-200c]
system.name: TO-N3 (biotin conjugate)
label.class: Satisfied
//
sequence.data: CGUUUAGUAGAUGAUUGUGCAUUGUUUCAAAAUG [hsa-mir-224]
system.name: TO-N3 (biotin conjugate)
label.class: Not satisfied
//
sequence.data: AUGAAUCUCUCAU [SHAPE_invivo_SARS-CoV-2_Motif_473]
system.name: TO-N3 (biotin conjugate)
label.class: Not satisfied
//
sequence.data: GUGUGGAGAGAGCACUGAGCCUGCCCACC [hsa-mir-6849]
system.name: TO-N3 (biotin conjugate)
label.class: Satisfied
//
sequence.data: GCACCAUUAUUAUCAGCUGGUAUUUUUGGUGC
system.name: TO-N3 (biotin conjugate)
label.class: Not satisfied
//
sequence.data: UCAGGAUCUACUCAUGUCGUCUUUGG [hsa-mir-573]
system.name: TO-N3 (biotin conjugate)
label.class: Satisfied
//
sequence.data: ACAUUUGCAACCUGUGAAGAUGCAAAACUUUAAGUGU [hsa-mir-2053]
system.name: TO-N3 (biotin conjugate)
label.class: Not satisfied
//
sequence.data: GAGGUGAGCAGGAUACUUACCUG [U1snRNP5ss-16]
system.name: TO-N3 (biotin conjugate)
label.class: Satisfied
//
sequence.data: UAUUUUGUUAUUCUGGUCACAGAAUGACCUAGUA [hsa-mir-630]
system.name: TO-N3 (biotin conjugate)
label.class: Satisfied
//
sequence.data: CUUCAGCCCCAGGAAGCCUUGGUCGGGGGCAGGAG [hsa-mir-647]
system.name: TO-N3 (biotin conjugate)
label.class: Satisfied
